Test: autophagy modulators in MEF cells, primary screen, imaging, high-content, MEF GFP-LC3 (AID 463193);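 note: cell loss after 18 h compound exposure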
Settings: MEF GFP-LC3 puncta imaging, at 10 µM; measured here: cell loss, nuclei count
The whole screen tested about 190,000 compounds, of which about 1,900 (1%) were called active. The entries come from a sample that favours actives as a whole.

Compound: O=C(NNC1CC(=O)N(c2cccc(Cl)c2)C1=O)c1cccnc1 (stereo not drawn)
Units: %
toxicity: -11.8
//
Compound: Cc1ccc(NC2=C(Cl)C(=O)OC2OC(=O)c2ccccc2C)cc1 (stereo not drawn)
Units: %
toxicity: 12.9
//
Compound: O=C(c1cccc(C(=O)N2CCN(c3ccc(F)cc3)CC2)c1)N1CCN(c2ccc(F)cc2)CC1
Units: %
toxicity: -26
//
Compound: COc1ccc(C(=O)Nc2ccc(NC(=O)C(C)C)nc2)cc1
Units: %
toxicity: -1.69
//
Compound: O=C(OCC(=O)N1CCN(C(=O)c2ccco2)CC1)c1ccccc1Cc1ccccc1
Units: %
toxicity: 4.3
//
Compound: CCOc1ccc(N(CC(=O)NCCc2ccc(OC)cc2)S(C)(=O)=O)cc1
Units: %
toxicity: -14.4
//
Compound: Cc1cccc(N(C(=O)Cc2cccs2)C(C(=O)NCc2ccco2)c2ccncc2)c1 (stereo not drawn)
Units: %
toxicity: 4.04
//
Compound: CCCCN1C(=O)/C(=C/C=C2/C=Cc3ccccc3N2CC)SC1=S
Units: %
toxicity: 17.1
//
Compound: COc1cccc(C(=O)N2CCCC(CCC(=O)NCc3ccc(F)c(F)c3)C2)c1 (stereo not drawn)
Units: %
toxicity: 5.82
//
Compound: Cc1nc([N+](=O)[O-])c(NCCCO)n1Cc1ccccc1
Units: %
toxicity: 4.77
//
Compound: O=C(N/N=C/c1ccc(Br)o1)c1cncc(Br)c1
Units: %
toxicity: -0.407
//
Compound: CN(C)S(=O)(=O)N1CCN(c2ccc([N+](=O)[O-])cc2)CC1
Units: %
toxicity: 4.08
//
Compound: CCOC12CC(C)(C)CC(C)(CC3=C1C(=O)CC(C)(C)C3)C2 (stereo not drawn)
Units: %
toxicity: 3.51
//
Compound: C/C(Cc1ccccc1)=N\NC(=O)CNC(=O)c1cccc(Br)c1
Units: %
toxicity: 7.09
//
Compound: CCCC(=O)NC(C)C(c1cccs1)N1CCN(c2ccccc2)CC1 (stereo not drawn)
Units: %
toxicity: 28.7
//
Compound: Cc1ccc(C(=O)NCC2CCCO2)o1 (stereo not drawn)
Units: %
toxicity: -1.73
//
Compound: CC(=O)c1ccc(N=C2SCCCN2C(=O)C2CCCCC2)cc1
Units: %
toxicity: -1.61
//
Compound: CCNC(=S)N(CCc1c(C)[nH]c2ccc(C)cc12)Cc1ccco1
Units: %
toxicity: 0.117
//
Compound: Cn1c(-c2ccc(F)cc2)cnc1SCC(=O)NNC(=O)Cc1ccccc1
Units: %
toxicity: -10.5
//
Compound: CC1CCN(C2=NC(=O)/C(=C/c3cn[nH]c3-c3ccccc3)S2)CC1
Units: %
toxicity: 5.05
//
Compound: CCOC(=O)c1c(NC(=O)Cn2nc(C(F)(F)F)cc2C)sc2c1CCC2
Units: %
toxicity: 0.444
//
Compound: CCCCn1c(N)c(N2CCOCC2)c(=O)n(CC(=O)NCCc2ccccc2)c1=O
Units: %
toxicity: 10.6
//
Compound: COc1ccc(C(CC(=O)Nc2ccc(C)cc2)NC(=O)C(F)(F)F)cc1 (stereo not drawn)
Units: %
toxicity: -5.77
//
Compound: CN(C)Cc1ccccc1C1(O)c2ccccc2CSc2ccccc21 (stereo not drawn)
Units: %
toxicity: -6.62
//
Compound: COC(=O)[C@@H]1CC[C@H](C)[C@@H](c2ccc(C)cc2)N1C(=O)c1ccc(/C=N/O[C@H](C)c2cn([C@@H]3COC[C@H]3O)nn2)cc1
Units: %
toxicity: 5.86
//
Compound: CCOC(=O)C1=C(C)OC(N)=C(C#N)C1c1cncc(-c2ccc(F)cc2)c1 (stereo not drawn)
Units: %
toxicity: 10.5
//
Compound: CN1CCN(CC(=O)Nc2sc3c(c2C#N)CCC(C(C)(C)C)C3)CC1 (stereo not drawn)
Units: %
toxicity: 29.1
//
Compound: COc1ccc(Nc2nc(-c3ccccc3)cs2)cc1
Units: %
toxicity: -34.3
//
Compound: C/C(=N/O)c1ccc(N2C(=O)C3C4C=CC(C3C2=O)C2C3C(=O)N(c5ccc(/C(C)=N/O)cc5)C(=O)C3C42)cc1 (stereo not drawn)
Units: %
toxicity: 14.4
//
Compound: COc1ccc2[nH]c(C)c(CCN(Cc3cccs3)C(=S)Nc3ccccc3OC)c2c1
Units: %
toxicity: 16.6
//
Compound: COc1ccc(OC)c(C(=O)c2ccc(C(=O)N3CCN(Cc4csc(C)n4)CC3)cc2)c1
Units: %
toxicity: 6.76
//
Compound: Fc1cccc2ncnc(OCc3ccccc3)c12
Units: %
toxicity: -3.11
//
Compound: CN(c1ccccc1)S(=O)(=O)c1ccc(Cl)c(C(=O)OCC(=O)N2CCOCC2)c1
Units: %
toxicity: 2.3
//
Compound: CCC1CCc2c(sc(NC(C)=O)c2C#N)C1 (stereo not drawn)
Units: %
toxicity: -8.42
//
Compound: Cc1ccc(NC(=O)NC2CCCCC2)cc1S(=O)(=O)N1CCOCC1
Units: %
toxicity: -3.67
//
Compound: C=CCN1C(=O)C(Cc2ccc(OCC)cc2)SC1=Nc1ccc(C(=O)O)cc1 (stereo not drawn)
Units: %
toxicity: -5.34
//
Compound: CCN1CCN(CC(=O)Nc2sc3c(c2C#N)CCC3)CC1
Units: %
toxicity: 4.77
//
Compound: O=c1cc(-c2ccccc2)[nH]c2cc(F)ccc12
Units: %
toxicity: -7.91
//
Compound: CCN1CCN(C(c2cccnc2)c2cc(Cl)c3cccnc3c2O)CC1 (stereo not drawn)
Units: %
toxicity: 15.1
//
Compound: c1ccc(C2c3[nH]c4ccccc4c3CCN2Cc2cccn2-c2cccnc2)nc1 (stereo not drawn)
Units: %
toxicity: -2.12
//
Compound: COc1ccc(/C=C/C(=O)NC(=S)NN2CCCCC2c2cccnc2)cc1 (stereo not drawn)
Units: %
toxicity: 2.51
//
Compound: CCc1cc(Br)ccc1NC(=O)C1CCCO1 (stereo not drawn)
Units: %
toxicity: -4.23
//
Compound: O=C(CCCN1C(=O)/C(=C/c2ccccc2)SC1=S)Nc1ccc(O)cc1
Units: %
toxicity: 20.5

---

Experiment: autophagy modulators in MEF cells, primary screen, imaging, high-content, MEF GFP-LC3 (AID 463193);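 note: cell loss after 18 h compound exposure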
Conditions: MEF GFP-LC3 puncta imaging, at 10 µM; measured here: cell loss, nuclei count
The campaign covered roughly 190,000 compounds. About 1,900 (1%) were called active. For the sample, actives were picked, then their nearest neighbours and some compounds at random.
Listing: toxicity of selected compounds

Compound: CCC(C)(C)NC(=O)/C=C/c1cc(OC)c(OC)c(S(=O)(=O)N2CCc3ccccc32)c1
toxicity [%]: 20
--
Compound: C/C(=N\NC(=O)c1cc2c(s1)CCC(C)C2)c1cccnc1 (centres undefined)
toxicity [%]: -0.909
--
Compound: CCOc1ccccc1N1CCN(C(=O)COc2ccc3c(C)cc(=O)oc3c2)CC1
toxicity [%]: 7.33
--
Compound: CCC(=O)Nc1cc(C(F)(F)F)ccc1N1CCCC1
toxicity [%]: -3.5
--
Compound: COc1ccc(C(=O)NC(=S)Nc2ccc(N3CCCC3)cc2)cc1OC
toxicity [%]: 8.63
--
Compound: CCN(CC(=O)NCCc1ccccc1)S(=O)(=O)c1ccccc1
toxicity [%]: 29.2
--
Compound: CCCC(=O)n1nc(-c2ccccc2)nc1N
toxicity [%]: -5.17
--
Compound: COc1ccc(OC)c(S(=O)(=O)NCCC(C)C)c1
toxicity [%]: 7.42
--
Compound: Cc1nc(Nc2ccc3c(c2)OCCO3)c2nnn(Cc3ccccc3Cl)c2n1
toxicity [%]: 4.03
--
Compound: Nc1nc(NC(=O)/C=C/c2ccccc2)nn1-c1ccccc1
toxicity [%]: 2.03
--
Compound: O=C(Cc1c(F)cccc1Cl)Nc1ccc(-n2cnnn2)cc1
toxicity [%]: 5.48
--
Compound: CC1CCc2sc(C(=O)N/N=C/C3CCCCC3)cc2C1 (centres undefined)
toxicity [%]: -2.28
--
Compound: CN(C)c1ccc(-n2cccc2/C=N/n2cnnc2)cc1
toxicity [%]: -2.02
--
Compound: COc1cccc(OC)c1C(=O)Nc1ccc(N2CCCCC2)cc1
toxicity [%]: 0.418
--
Compound: CCN1C(=O)/C(=C2/Sc3ccccc3N2CCCS(=O)(=O)O)SC1=S
toxicity [%]: -10.6
--
Compound: Cc1cc([N+](=O)[O-])nn1Cc1ccc(F)cc1
toxicity [%]: 3.65
--
Compound: COc1ccc(Nc2ncc(F)c(N3CCOCC3)n2)cc1
toxicity [%]: 8.68
--
Compound: C(=N\N1CCN(c2ccccn2)CC1)/C1=C(N2CCOCC2)C(=C/c2ccccc2)/CC1
toxicity [%]: 10.4
--
Compound: COc1cccc2cc(S(=O)(=O)c3ccc(C)cc3)/c(=N/NS(=O)(=O)c3ccc(C)cc3)oc12
toxicity [%]: 3.69
--
Compound: CCOC(=O)N1CCN(S(=O)(=O)c2ccc(C(=O)Nc3ccc(F)cc3F)cc2)CC1
toxicity [%]: 35.6
--
Compound: O=C(CN(c1ccccc1)S(=O)(=O)c1ccc(Cl)cc1)Nc1ccccc1C(=O)N1CCCC1
toxicity [%]: 0.638
--
Compound: CC(C)C(=O)Nc1c(O)c2ccccc2[nH]c1=O
toxicity [%]: 5.73
--
Compound: CCNC(=O)COc1cc(C)c(Br)c(C)c1
toxicity [%]: 9.49
--
Compound: CNS(=O)(=O)c1ccc(NC(=O)C2CC(=O)N(c3ccc(Cl)cc3)C2)cc1 (centres undefined)
toxicity [%]: -13.2
--
Compound: Cc1cccc(COc2ccccc2/C=N/Nc2ccc([N+](=O)[O-])cc2)c1
toxicity [%]: 8.3
--
Compound: CC(Nc1nc(N2CCCC2)nc2ccccc12)c1ccccc1 (centres undefined)
toxicity [%]: -2.79
--
Compound: CCCc1nc(NCc2ccc3c(c2)OCO3)c2nnn(Cc3ccccc3Cl)c2n1
toxicity [%]: 5
--
Compound: CC(Nc1nc(N2CCOCC2)nc2ccccc12)c1ccccc1 (centres undefined)
toxicity [%]: 11.2
--
Compound: O=C(O)CSCC(=O)Nc1cccc(C(F)(F)F)c1
toxicity [%]: 0
--
Compound: CCC(=O)/C=C1\Sc2ccccc2N1CC
toxicity [%]: -11.3
--
Compound: Cc1ccc(Nc2cc(C)nc3c(C)ccc([N+](=O)[O-])c23)cc1
toxicity [%]: 15.4
--
Compound: COc1cccc(C(=O)Nc2ccc(N3CCCC3)cc2)c1
toxicity [%]: 21.3
--
Compound: CC1c2nc3ccccc3n2C(CC(=O)NCCCN2CCOCC2)C(=O)N1Cc1ccccc1 (centres undefined)
toxicity [%]: -3.99
--
Compound: OCC1(CCc2ccccc2)CCN(Cc2ccc3nsnc3c2)CC1
toxicity [%]: 0.377
--
Compound: N#C/C(=C\C1=C(N2CCOCC2)C(=C\c2ccccc2)/CC1)C(=O)Nc1ccccc1F
toxicity [%]: 9.15
--
Compound: COc1ccc(CN(C)Cc2nc3cc(OC)c(OC)cc3c(=O)[nH]2)c(OC)c1
toxicity [%]: -8.88
--
Compound: CCN1CCN(CCNC(=O)c2ccc(/C=C3/Sc4ccccc4N(Cc4cccc(C)c4)C3=O)cc2)CC1
toxicity [%]: 30.3
--
Compound: C/C(=N\NC(=O)c1ccc(NS(=O)(=O)c2cccs2)cc1)c1ccc2ccccc2c1
toxicity [%]: -14.3
--
Compound: CN(C)c1ccc(-n2cccc2/C=C2/SC(=Nc3ccc(F)cc3)NC2=O)cc1
toxicity [%]: -20.2
--
Compound: O=C(CSc1nc2[nH]ncc2c(=O)n1-c1ccccc1)N1CCCc2ccccc21
toxicity [%]: 17.2
--
Compound: COc1ccc(NC(=O)CN(C)CC(=O)Nc2cccc(C(F)(F)F)c2)cc1
toxicity [%]: 1.34
--
Compound: Cc1ccc(CC(=O)Nc2ccc(OC(F)F)c(Cl)c2)cc1C
toxicity [%]: -11.9
--
Compound: Cc1cc(C(=O)N/N=C/c2cc([N+](=O)[O-])cc(C)c2O)n[nH]1
toxicity [%]: 8.83
--
Compound: O=C(Cn1cnc2c(nnn2Cc2ccc(F)cc2)c1=O)NCc1ccc2c(c1)OCO2
toxicity [%]: -2.24
